# Test description: in vitro
# Condition description: human, hek293t cells
Measure: viability at 48 h, 25 µM (%)
Answers are plain numbers, in %.

{"Molecule": "O=C(CCl)Nc1ccc(OCc2ccccc2)cc1 [6-K07]", "Recorded measurement": 0.0552}
{"Molecule": "C=CC(=O)N(C)CC(=O)N1CCN(C(=O)C2CCCCC2)CC1 [3-O10]", "Recorded measurement": 93.8}

Hi team, please reply with viability at 48 h, 25 µM for each item in this list.
1. O=C(CCl)NCC(c1nccs1)N1CCCC1 (centres unmarked) [6-D11]
2. O=C(CCl)N1CCCCc2ccc([N+](=O)[O-])cc21 [5-I18]
3. C=CC(=O)Nc1ccc2c(=O)onc(C)c2c1 [1-N12]

(A)
[92.9, 1.56, 1.1]
